System: Caco-2
assay protocol: cell viability relative to DMSO; higher = less toxic
test parameters: 72 h; 1000 nM
readout: cell viability (%)
API: value field is a number in %; no unit string.

Solved cases below.
compound: O=C(Nc1ccc(-c2ccnc(Nc3ccc(N4CCOCC4)cc3)n2)cc1)C1CCCN1 (stereo not given)
test value: 94.2
--
compound: CC[N+](CC)(CC)CCOc1ccc(/C=C/c2ccccc2)cc1
test value: 89.3
--
compound: Cc1cc(Cn2nnc3c(-c4ccco4)nc(N)nc32)ccc1N
test value: 113
--
compound: NCCCCN
test value: 89

Query: # lookup: cell viability of `N=C(N)c1ccc(-c2ccc(-c3ccc(C(=N)N)cc3)o2)cc1`
Result: 101

Query: Another compound to check: COC1(C2=NCCN2)COc2ccccc2O1 (stereo not given)
Result: 89.7

Query: Next entry: `CC(C)(C(=O)NCC(F)(F)C(F)(F)F)C(=O)N[C@@H]1C(=O)Nc2ccccc2-c2ccccc21`
Result: 89.8

Query: Similarly, `CCS(=O)(=O)N1CCC[C@@H]2CN3CCc4cc(OC)ccc4[C@@H]3C[C@@H]21` ?
Result: 104

Query: Can you handle CN1C(=O)C(Cc2c[nH]c3ccccc23)NC1=S (stereo not given) next?
Result: 110

Query: OC(CCCN1CCN(c2ncc(F)cn2)CC1)c1ccc(F)cc1 (stereo not given) ?
Result: 94.2

* * *

Tested on: Calu-3
assay protocol: relative viability EC50 (midpoint between 100% and the lowest measured viability); higher = less toxic
test parameters: 72 h
readout: relative viability EC50

Would you please look over these solved cases?
molecule smiles: Clc1ccccc1C(c1ccccc1)(c1ccccc1)n1ccnc1
test value: > 10 µM
//
molecule smiles: Cc1nc(NC(=O)N2CCC[C@H]2C(N)=O)sc1-c1ccnc(C(C)(C)C(F)(F)F)c1
test value: 0.743 µM
//
molecule smiles: O=c1cc[nH]c(=S)[nH]1
test value: > 10 µM
//
molecule smiles: CN(C(=O)CN1C(=O)COc2cc(Cl)c(Cl)cc21)[C@@H](CN1CCCC1)c1ccc(-c2cccc(C(N)=O)c2)cc1
test value: 3.79 µM
//
molecule smiles: O=P(O)(O)C(Cl)(Cl)P(=O)(O)O
test value: > 10 µM

Query: Recorded relative viability EC50 for `CCOc1cc(C(=O)Nc2ccc(Cl)c(-c3nc4ccccc4[nH]3)c2)cc(OCC)c1OCC` , please?
Result: > 10 µM

Query: Consider next the molecule `CCCc1nc(C(C)(C)O)c(C(=O)O)n1Cc1ccc(-c2ccccc2-c2nnn[nH]2)cc1` in the same way.
Result: > 10 µM

* * *

Test system: U2OS
assay protocol: cell viability relative to DMSO; higher = less toxic
test parameters: 72 h; 1000 nM
Parameter cell viability: see the listing below.
Please reply with the bare figure in % and do not write the unit itself.

Solved entries (count: 6):
compound: CC(C)C[C@H](NC(=O)[C@@H](COC(C)(C)C)NC(=O)[C@H](Cc1ccc(O)cc1)NC(=O)[C@H](CO)NC(=O)[C@H](Cc1c[nH]c2ccccc12)NC(=O)[C@H](Cc1cnc[nH]1)NC(=O)[C@@H]1CCC(=O)N1)C(=O)N[C@@H](CCCNC(=N)N)C(=O)N1CCC[C@H]1C(=O)NNC(N)=O [goserelin-acetate]
system name: U2OS
cell viability / %: 98.7

compound: CC(C)(C)C1CCc2c(sc(NC(=O)c3ccco3)c2C(=O)O)C1 (stereo not drawn)
system name: U2OS
cell viability / %: 97.1

compound: CCC(CO)(C(=O)OC1CC2CCC(C1)[N+]2(C)C)c1ccccc1 (stereo not drawn)
system name: U2OS
cell viability / %: 97.8

compound: O=c1cc[nH]c(=S)[nH]1
system name: U2OS
cell viability / %: 97.5

compound: O=C(CC1NCCCC1O)Cn1cnc2cc(Br)c(Cl)cc2c1=O (stereo not drawn)
system name: U2OS
cell viability / %: 32.2

compound: COC(=O)C1=C(C)NC(C)=C(C(=O)OCCN(C)Cc2ccccc2)C1c1cccc([N+](=O)[O-])c1 (stereo not drawn)
system name: U2OS
cell viability / %: 98.1

Query: Quick one: cell viability of `O[C@@H](C[C@H]1c2ccccc2-c2cncn21)C1CCCCC1` ?
Result: 96.7

Query: Now consider `O=C(/C=C/C=C/c1ccc2c(c1)OCO2)N1CCCCC1` .
Result: 102

Origin of values: the supplement of paper PMC13380429
